TARGET OR SYSTEM: N-type calcium channels in IMR32 human neuroblastoma cells (Homo sapiens)
Construct: expressing neuronal N-type calcium channels upon differentiation, was used for this assay
PROTOCOL NOTES: FLPIMR assay (FLIPR, IMR32 cells)
CONDITION INFO: nitrendipine present, read-out: FLP IMR IC50
Structures can show the parent of a compound that is named as a salt.
MEASURED ENDPOINT: pIC50
Expect pIC50 as a plain number equal to -log10 of the molar concentration.

Enquiry: Form field: reported pIC50 of CN[C@H](CC(C)C)C(=O)NCCCC(c1ccc(F)cc1)c1ccc(F)cc1 [Example 71, monohydrochloride]
Return: 5.60

Enquiry: Form field: reported pIC50 of CNCC(=O)NCCCC(c1ccc(F)cc1)c1ccc(F)cc1
Return: 5.54

Enquiry: Form field: reported pIC50 of CC(C)CN(C)CC(=O)NCCCC(c1ccc(F)cc1)c1ccc(F)cc1
Return: 5.80

Enquiry: Form field: reported pIC50 of CC(C)C[C@H](O)C(=O)NCCCC(c1ccc(F)cc1)c1ccc(F)cc1
Return: 5.72

Enquiry: Form field: reported pIC50 of CN[C@H](C(=O)NCCCC(c1ccc(F)cc1)c1ccc(F)cc1)C(C)C [Example 73, monohydrochloride]
Return: 5.41

Enquiry: Form field: reported pIC50 of CN[C@@H](CNCCCC(c1ccc(F)cc1)c1ccc(F)cc1)CC(C)C
Return: 5.66

* * *

TARGET OR SYSTEM: N-type calcium channels in IMR-32 cells (Homo sapiens, UniProt Q00975)
Construct: host or cells: IMR-32 cells differentiated with dibutyryl cAMP and bromodeoxyuridine
PROTOCOL NOTES: N-type Ca2+ channel blocking potency in IMR-32 cells using Indo-1
Assay type: cell-based
CONDITION INFO: IMR-32, IMR-32 cells; at 10 μM; read-out: IMR32 % blockage at 10 μM
MEASURED ENDPOINT: inhibition at 10 µM (%)
Could you give me the number in %? Just the number is fine.

Enquiry: Form field: reported inhibition at 10 µM of O=C([C@H](Cc1ccccc1)NC1CCCCC1)N1CCN(C(c2ccc(F)cc2)c2ccc(F)cc2)CC1
Return: 102

Enquiry: Form field: reported inhibition at 10 µM of CC(C)N[C@@H](Cc1ccccc1)C(=O)N1CCN(C(c2ccc(F)cc2)c2ccc(F)cc2)CC1
Return: 99

Enquiry: Form field: reported inhibition at 10 µM of CC(C)CC(NC(=O)N1CCN(C)CC1)C(=O)N1CCN(C(c2ccc(F)cc2)c2ccc(F)cc2)CC1 (stereo in doubt)
Return: 54

Enquiry: Form field: reported inhibition at 10 µM of COc1cc(CN[C@@H](CC(C)C)C(=O)N2CCN(C(c3ccc(F)cc3)c3ccc(F)cc3)CC2)cc(OC)c1OC
Return: 95

Enquiry: Form field: reported inhibition at 10 µM of N[C@@H](Cc1ccccc1)C(=O)N1CCN(C(c2ccc(F)cc2)c2ccc(F)cc2)CC1
Return: 99

Enquiry: Form field: reported inhibition at 10 µM of CC(C)[C@@H](C(=O)NCCCC(c1ccc(F)cc1)c1ccc(F)cc1)N(C)C1CCCCC1
Return: 99

Enquiry: Form field: reported inhibition at 10 µM of CCC(C)N[C@H](C(=O)NCCCC(c1ccc(F)cc1)c1ccc(F)cc1)C(C)C (stereo partly shown)
Return: 94

* * *

TARGET OR SYSTEM: L-type calcium channels in A10 cells (Rattus norvegicus)
Construct: which endogenously expresses L-type calcium channels
Sequence (P22002 whole entry): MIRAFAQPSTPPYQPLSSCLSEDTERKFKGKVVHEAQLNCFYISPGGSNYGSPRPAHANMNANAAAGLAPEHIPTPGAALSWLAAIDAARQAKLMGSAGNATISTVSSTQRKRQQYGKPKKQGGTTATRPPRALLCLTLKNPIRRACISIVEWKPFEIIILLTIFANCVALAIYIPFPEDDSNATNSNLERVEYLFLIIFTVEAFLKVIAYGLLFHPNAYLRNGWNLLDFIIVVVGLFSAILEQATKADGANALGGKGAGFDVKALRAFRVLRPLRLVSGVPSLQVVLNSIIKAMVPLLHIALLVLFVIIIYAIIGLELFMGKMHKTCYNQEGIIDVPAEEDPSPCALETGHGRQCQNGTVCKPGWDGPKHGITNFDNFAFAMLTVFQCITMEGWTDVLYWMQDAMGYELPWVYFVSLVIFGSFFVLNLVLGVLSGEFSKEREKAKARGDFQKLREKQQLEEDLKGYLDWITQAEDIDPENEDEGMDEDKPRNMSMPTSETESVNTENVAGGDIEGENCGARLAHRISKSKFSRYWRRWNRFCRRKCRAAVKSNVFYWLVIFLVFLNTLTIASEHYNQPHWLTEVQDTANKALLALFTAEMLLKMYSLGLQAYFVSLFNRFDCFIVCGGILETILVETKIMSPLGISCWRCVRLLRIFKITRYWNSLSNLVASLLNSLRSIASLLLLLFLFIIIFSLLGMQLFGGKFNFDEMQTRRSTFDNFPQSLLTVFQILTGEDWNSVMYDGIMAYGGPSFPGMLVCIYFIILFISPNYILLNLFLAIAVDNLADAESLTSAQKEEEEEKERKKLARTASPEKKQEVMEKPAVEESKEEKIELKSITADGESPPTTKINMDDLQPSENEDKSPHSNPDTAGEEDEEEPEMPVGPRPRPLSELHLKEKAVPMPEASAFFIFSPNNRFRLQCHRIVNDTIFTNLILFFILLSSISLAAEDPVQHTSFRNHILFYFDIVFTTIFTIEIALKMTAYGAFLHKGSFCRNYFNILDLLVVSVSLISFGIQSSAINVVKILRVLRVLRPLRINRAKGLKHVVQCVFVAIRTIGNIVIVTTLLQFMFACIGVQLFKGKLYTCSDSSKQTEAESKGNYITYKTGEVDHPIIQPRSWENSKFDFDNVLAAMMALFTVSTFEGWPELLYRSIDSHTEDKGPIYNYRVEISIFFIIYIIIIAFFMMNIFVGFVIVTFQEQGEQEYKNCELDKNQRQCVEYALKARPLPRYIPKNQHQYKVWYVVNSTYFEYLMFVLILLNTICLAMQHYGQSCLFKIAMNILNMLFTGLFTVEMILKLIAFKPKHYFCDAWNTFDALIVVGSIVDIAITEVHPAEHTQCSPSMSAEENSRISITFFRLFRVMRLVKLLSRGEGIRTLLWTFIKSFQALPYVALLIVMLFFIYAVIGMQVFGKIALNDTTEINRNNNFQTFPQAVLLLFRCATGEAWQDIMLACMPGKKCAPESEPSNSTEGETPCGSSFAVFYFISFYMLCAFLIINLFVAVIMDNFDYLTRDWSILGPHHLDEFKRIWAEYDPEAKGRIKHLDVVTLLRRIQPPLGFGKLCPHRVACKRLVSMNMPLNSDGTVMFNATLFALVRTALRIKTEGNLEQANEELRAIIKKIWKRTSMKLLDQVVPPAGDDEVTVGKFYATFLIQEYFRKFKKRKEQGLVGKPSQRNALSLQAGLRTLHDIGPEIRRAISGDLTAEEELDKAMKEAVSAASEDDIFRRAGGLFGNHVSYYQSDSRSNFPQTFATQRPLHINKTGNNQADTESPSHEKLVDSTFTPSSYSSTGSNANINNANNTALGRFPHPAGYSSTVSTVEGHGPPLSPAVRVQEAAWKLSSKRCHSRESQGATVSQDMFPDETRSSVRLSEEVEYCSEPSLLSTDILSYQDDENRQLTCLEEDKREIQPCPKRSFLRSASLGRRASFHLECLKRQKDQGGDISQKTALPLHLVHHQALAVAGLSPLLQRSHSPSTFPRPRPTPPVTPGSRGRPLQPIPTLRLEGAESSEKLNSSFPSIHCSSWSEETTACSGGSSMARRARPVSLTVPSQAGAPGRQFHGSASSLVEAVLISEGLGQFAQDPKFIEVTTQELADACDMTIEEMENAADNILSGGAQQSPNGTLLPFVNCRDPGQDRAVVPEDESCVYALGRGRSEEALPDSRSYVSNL
Sequence (P54290 25-944 partner limits assumed): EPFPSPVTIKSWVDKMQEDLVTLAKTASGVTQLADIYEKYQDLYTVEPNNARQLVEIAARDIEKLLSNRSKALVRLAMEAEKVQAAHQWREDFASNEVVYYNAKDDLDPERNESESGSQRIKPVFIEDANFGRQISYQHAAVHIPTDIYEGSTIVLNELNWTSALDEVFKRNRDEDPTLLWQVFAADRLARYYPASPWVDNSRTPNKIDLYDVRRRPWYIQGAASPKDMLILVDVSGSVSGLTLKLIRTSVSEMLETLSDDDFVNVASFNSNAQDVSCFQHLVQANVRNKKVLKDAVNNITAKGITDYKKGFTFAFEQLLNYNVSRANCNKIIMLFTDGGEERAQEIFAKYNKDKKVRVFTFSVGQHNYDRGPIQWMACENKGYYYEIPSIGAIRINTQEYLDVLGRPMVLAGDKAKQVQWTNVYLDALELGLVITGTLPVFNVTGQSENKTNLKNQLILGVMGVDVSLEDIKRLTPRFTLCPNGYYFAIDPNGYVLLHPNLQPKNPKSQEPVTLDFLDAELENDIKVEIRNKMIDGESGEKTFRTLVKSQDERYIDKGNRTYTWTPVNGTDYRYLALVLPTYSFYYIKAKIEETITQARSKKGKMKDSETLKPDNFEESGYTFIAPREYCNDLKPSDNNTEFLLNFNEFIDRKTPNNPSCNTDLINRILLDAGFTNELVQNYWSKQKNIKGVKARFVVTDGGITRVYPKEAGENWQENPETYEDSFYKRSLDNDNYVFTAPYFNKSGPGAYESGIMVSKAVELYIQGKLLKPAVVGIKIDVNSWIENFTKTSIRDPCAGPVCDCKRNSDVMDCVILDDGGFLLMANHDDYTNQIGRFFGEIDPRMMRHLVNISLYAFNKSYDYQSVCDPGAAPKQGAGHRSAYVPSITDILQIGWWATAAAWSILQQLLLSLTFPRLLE
Sequence (P54290 945-1091 partner limits assumed): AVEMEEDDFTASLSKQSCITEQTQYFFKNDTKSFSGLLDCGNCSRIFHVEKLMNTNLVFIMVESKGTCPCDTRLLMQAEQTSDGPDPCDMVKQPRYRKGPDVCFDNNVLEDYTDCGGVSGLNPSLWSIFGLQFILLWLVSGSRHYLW
Sequence (P54287 whole entry partner): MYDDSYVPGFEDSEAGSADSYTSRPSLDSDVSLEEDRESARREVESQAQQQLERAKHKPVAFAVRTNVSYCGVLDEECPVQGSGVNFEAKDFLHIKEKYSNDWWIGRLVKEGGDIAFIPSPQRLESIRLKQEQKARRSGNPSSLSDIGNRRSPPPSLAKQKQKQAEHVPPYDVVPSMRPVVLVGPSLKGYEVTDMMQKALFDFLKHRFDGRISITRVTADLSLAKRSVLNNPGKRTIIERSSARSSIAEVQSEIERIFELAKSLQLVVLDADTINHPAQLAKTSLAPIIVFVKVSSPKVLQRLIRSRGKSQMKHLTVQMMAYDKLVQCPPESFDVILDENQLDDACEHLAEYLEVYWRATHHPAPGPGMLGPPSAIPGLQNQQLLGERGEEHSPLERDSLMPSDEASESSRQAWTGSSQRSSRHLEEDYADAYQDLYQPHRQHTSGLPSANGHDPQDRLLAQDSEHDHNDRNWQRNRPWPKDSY
PROTOCOL NOTES: L-type Ca2+ channel blocking potency in A10 cells (FLIPR)
CONDITION INFO: read-out: FLPA10 IC50
Counter-ions that a name gives are not always drawn.
MEASURED ENDPOINT: IC50 (nM)
Could you give me the number in nM? Just the number is fine.

Enquiry: Form field: reported IC50 of CC(C)C[C@@H](C(=O)NCCCC(c1ccc(F)cc1)c1ccc(F)cc1)N1CCCCC1
Return: 160

Enquiry: Form field: reported IC50 of CC(C)C[C@H](NC(=O)N1CCN(c2ccccc2)CC1)C(=O)NCCCC(c1ccc(F)cc1)c1ccc(F)cc1
Return: 74

Enquiry: Form field: reported IC50 of CC(C)C[C@H](NC1CCOCC1)C(=O)NCCCC(c1ccc(F)cc1)c1ccc(F)cc1
Return: 570

Enquiry: Form field: reported IC50 of COc1cc(CN[C@@H](CC(C)C)C(=O)N2CCN(C(c3ccc(F)cc3)c3ccc(F)cc3)CC2)cc(OC)c1OC
Return: 220

Enquiry: Form field: reported IC50 of CC(C)CCN[C@@H](Cc1ccccc1)C(=O)N1CCN(C(c2ccc(F)cc2)c2ccc(F)cc2)CC1.Cl [Example 55, dihydrochloride]
Return: 940

Enquiry: Form field: reported IC50 of CCC(C)N[C@H](C(=O)NCCCC(c1ccc(F)cc1)c1ccc(F)cc1)C(C)C (stereo partly shown)
Return: 510

Enquiry: Form field: reported IC50 of CC(C)C[C@@H](C(=O)N1CCN(C(c2ccc(F)cc2)c2ccc(F)cc2)CC1)N(C)C [Example 39, dihydrochloride]
Return: 890

Enquiry: Form field: reported IC50 of CC(C)N[C@@H](Cc1ccccc1)C(=O)N1CCN(C(c2ccc(F)cc2)c2ccc(F)cc2)CC1
Return: 1300

Enquiry: Form field: reported IC50 of CC(C)C[C@H](N)C(=O)N1CCN(C(c2ccc(F)cc2)c2ccc(F)cc2)CC1
Return: 420

Enquiry: Form field: reported IC50 of CC(C)C[C@H](NCc1ccc(OC(C)(C)C)cc1)C(=O)N1CCN(C(c2ccc(F)cc2)c2ccc(F)cc2)CC1
Return: 89

Enquiry: Form field: reported IC50 of CC(C)C[C@@H](CN1CCN(C(c2ccc(F)cc2)c2ccc(F)cc2)CC1)NC(=O)N1CCCCCC1
Return: 270

Enquiry: Form field: reported IC50 of CC(C)C[C@@H](C(=O)NCCC(c1ccccc1)c1ccccc1)N(C)C1CCCCC1 [Example 25, monohydrochloride]
Return: 800

Enquiry: Form field: reported IC50 of CC(C)C[C@@H](C(=O)N1CCN(C(c2ccc(F)cc2)c2ccc(F)cc2)CC1)N(C)C1CCCCC1
Return: 500

Enquiry: Form field: reported IC50 of CC(C)CC(NC(=O)N1CCN(C)CC1)C(=O)N1CCN(C(c2ccc(F)cc2)c2ccc(F)cc2)CC1 (stereo in doubt)
Return: 1700

Enquiry: Form field: reported IC50 of CC(C)[C@H](NC(=O)N1CCCCCC1)C(=O)N1CCN(C(c2ccc(F)cc2)c2ccc(F)cc2)CC1
Return: 360

Enquiry: Form field: reported IC50 of CC(C)C[C@H](NC1CCOCC1)C(=O)N1CCN(C(c2ccc(F)cc2)c2ccc(F)cc2)CC1
Return: 1100

Enquiry: Form field: reported IC50 of CC(C)(C)OC(=O)N[C@@H](Cc1ccccc1)C(=O)N1CCN(C(c2ccc(F)cc2)c2ccc(F)cc2)CC1
Return: 710

Enquiry: Form field: reported IC50 of CC(C)CCN(C)[C@@H](CC(C)C)C(=O)NCCCC(c1ccc(F)cc1)c1ccc(F)cc1 [Example 28, monohydrochloride]
Return: 290

Enquiry: Form field: reported IC50 of CC(C)C[C@H](NC1CCCCC1)C(=O)N1CCN(C(c2ccc(F)cc2)c2ccc(F)cc2)CC1
Return: 610

Enquiry: Form field: reported IC50 of O=C([C@H](Cc1ccccc1)NC1CCCCC1)N1CCN(C(c2ccc(F)cc2)c2ccc(F)cc2)CC1
Return: 1700

Enquiry: Form field: reported IC50 of CC(C)C[C@H](NC(=O)OC(C)(C)C)C(=O)N1CCN(C(c2ccc(F)cc2)c2ccc(F)cc2)CC1
Return: 950

Enquiry: Form field: reported IC50 of CC(C)C[C@H](N)C(=O)NCCCC(c1ccc(F)cc1)c1ccc(F)cc1 [Example 7, monohydrochloride]
Return: 280

Enquiry: Form field: reported IC50 of CN[C@@H](CC(C)C)C(=O)NCCCC(c1ccc(F)cc1)c1ccc(F)cc1 [Example 12, monohydrochloride]
Return: 600

Enquiry: Form field: reported IC50 of CC(C)C[C@H](NCc1ccccc1)C(=O)N1CCN(C(c2ccc(F)cc2)c2ccc(F)cc2)CC1
Return: 420

Enquiry: Form field: reported IC50 of CC(C)N[C@H](C(=O)NCCCC(c1ccc(F)cc1)c1ccc(F)cc1)C(C)C
Return: 680

* * *

Assign inhibition at 10 µM to each entry below.
TARGET OR SYSTEM: N-type Ca2+ channels in cultured superior cervical ganglion (SCG) neurons (Rattus norvegicus, UniProt Q02294)
Construct: from tissue
PROTOCOL NOTES: Calcium current in superior cervical ganglion neurons (whole-cell voltage clamp)
Assay type: cell-based
CONDITION INFO: at 10 μM, read-out: SCG Ca, % blockage at 10 μM
Where a name gives a salt, the structure may show the parent alone.
Could you give me the number in %? Just the number is fine.

Enquiry: Form field: reported inhibition at 10 µM of CC(C)C[C@H](N)C(=O)NCCCC(c1ccc(F)cc1)c1ccc(F)cc1 [Example 7, monohydrochloride]
Return: 98

Enquiry: Form field: reported inhibition at 10 µM of CC(C)C[C@@H](CN1CCN(C(c2ccc(F)cc2)c2ccc(F)cc2)CC1)NC(=O)N1CCCCCC1 [Example 36]
Return: 81

Enquiry: Form field: reported inhibition at 10 µM of CC(C)[C@H](NC(=O)N1CCCCCC1)C(=O)N1CCN(C(c2ccc(F)cc2)c2ccc(F)cc2)CC1 [Example 33]
Return: 72

Enquiry: Form field: reported inhibition at 10 µM of CN[C@@H](CC(C)C)C(=O)NCCCC(c1ccc(F)cc1)c1ccc(F)cc1 [Example 12, monohydrochloride]
Return: 94
